Source listed as patent US11098056B2.

Measurement Target: UGT8 (Mus musculus)
Construct: Groups of 5 male C57Bl/6 mice, 6-9 wks of age (Charles River Laboratories); tissue Charles River Laboratories; host or cells: mouse kidney (adult C57Bl/6) and mid-/hind brain (neonatal P14-P21 mice)
Sequence (Q64676 21-541): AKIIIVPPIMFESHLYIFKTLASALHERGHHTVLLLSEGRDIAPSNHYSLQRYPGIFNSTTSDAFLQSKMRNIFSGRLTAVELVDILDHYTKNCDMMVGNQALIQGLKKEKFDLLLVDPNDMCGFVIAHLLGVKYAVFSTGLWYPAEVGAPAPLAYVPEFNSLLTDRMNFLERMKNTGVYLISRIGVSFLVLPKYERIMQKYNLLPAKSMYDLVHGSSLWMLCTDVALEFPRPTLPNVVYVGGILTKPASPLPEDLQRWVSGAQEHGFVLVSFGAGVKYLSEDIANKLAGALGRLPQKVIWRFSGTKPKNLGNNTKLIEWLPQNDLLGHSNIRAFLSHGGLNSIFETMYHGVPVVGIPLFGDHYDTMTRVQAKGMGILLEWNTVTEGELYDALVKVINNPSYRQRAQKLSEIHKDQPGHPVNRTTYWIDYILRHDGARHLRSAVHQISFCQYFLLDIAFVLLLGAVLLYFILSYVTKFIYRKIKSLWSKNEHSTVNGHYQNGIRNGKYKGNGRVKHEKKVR
Test Description: Acute in vivo target engagement in neonatal mouse brain: inhibition of de novo GalCer and SFT synthesis (13C-Gal incorporation)
Test Context: neonatal mouse (P14-P21) brain, single oral dose 10 mg/kg, 5 hr
Reported Endpoint: brain Sulfatide % inh

[
  {
    "Compound": "CNC(=O)c1csc2c(C(F)(F)F)cc(N3CCC(OC(=O)NC4CC4)CC3)nc12 [Example 473]",
    "Measurement Target": "UGT8 (Mus musculus)",
    "brain Sulfatide % inh": "A, A, A (A > 80%)"
  },
  {
    "Compound": "CNC(=O)c1csc2c(C(F)(F)F)cc(N3CCC(OC(=O)N[C@@H](C)C4CC4)CC3)nc12 [Example 109]",
    "Measurement Target": "UGT8 (Mus musculus)",
    "brain Sulfatide % inh": "A, A, A (A > 80%)"
  },
  {
    "Compound": "CNC(=O)c1csc2c(C(F)(F)F)cc(N3CCC(OC(=O)NC(C)C)CC3)nc12 [Example 76]",
    "Measurement Target": "UGT8 (Mus musculus)",
    "brain Sulfatide % inh": "A (A > 80%)"
  },
  {
    "Compound": "CNC(=O)c1csc2c(C(F)(F)F)cc(O[C@@H]3CCN(C(=O)OCCOC(F)(F)F)[C@H](C)C3)nc12 [Example 375]",
    "Measurement Target": "UGT8 (Mus musculus)",
    "brain Sulfatide % inh": "A (A > 80%)"
  }
]

Now for the compound whose brain Sulfatide % inh we want.
Q: Please provide the recorded brain Sulfatide % inh for CNC(=O)c1csc2c(C(F)(F)F)cc(N3CCC(OC(=O)N[C@@H](C)COC(F)(F)F)CC3)nc12 [Example 90] , tested on UGT8 (Mus musculus).
A: A, A, A (A > 80%)
